The origin of these recorded values is patent USRE47150.

IC50, FXa restoring assay values, listed per item
targetDesc: recombinant TFPI of the FXa restoring assay (human, mouse or rat; not specified for Tables 9 and 10)
Sequence (P10646 29-304): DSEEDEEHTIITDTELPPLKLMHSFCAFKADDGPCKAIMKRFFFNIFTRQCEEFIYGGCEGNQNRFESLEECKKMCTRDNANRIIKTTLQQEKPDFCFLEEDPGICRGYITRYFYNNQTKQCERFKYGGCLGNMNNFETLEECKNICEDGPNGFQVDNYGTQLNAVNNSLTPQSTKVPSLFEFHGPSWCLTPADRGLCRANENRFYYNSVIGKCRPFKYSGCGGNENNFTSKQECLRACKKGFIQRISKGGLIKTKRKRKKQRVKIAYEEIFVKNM
measurementDescription: cell-based or functional assay
Kindly answer with a numeric value in µg/mL, unit omitted.

Answered examples (2):
binder="2A8 HC_K99L (Fab, V domains shown, also called 2A8-9) VH: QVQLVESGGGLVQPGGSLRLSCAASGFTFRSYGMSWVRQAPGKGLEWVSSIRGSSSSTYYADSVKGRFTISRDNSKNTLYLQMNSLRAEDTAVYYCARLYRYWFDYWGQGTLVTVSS VL: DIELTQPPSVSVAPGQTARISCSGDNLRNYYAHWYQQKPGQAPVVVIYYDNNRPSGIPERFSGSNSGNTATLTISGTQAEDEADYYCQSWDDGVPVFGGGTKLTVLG" scaleunit=µg/mL obsvalue=0.181
binder="2A8 HC_S54F (Fab, V domains shown, also called 2A8-7) VH: QVQLVESGGGLVQPGGSLRLSCAASGFTFRSYGMSWVRQAPGKGLEWVSSIRGFSSSTYYADSVKGRFTISRDNSKNTLYLQMNSLRAEDTAVYYCARKYRYWFDYWGQGTLVTVSS VL: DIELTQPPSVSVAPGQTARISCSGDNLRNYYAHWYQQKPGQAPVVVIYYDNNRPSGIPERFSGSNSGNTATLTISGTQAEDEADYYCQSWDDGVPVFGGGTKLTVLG" scaleunit=µg/mL obsvalue=0.35

Proceed to the following item.
Item: 2A8 HC_S31P (Fab, V domains shown, also called 2A8-2) VH: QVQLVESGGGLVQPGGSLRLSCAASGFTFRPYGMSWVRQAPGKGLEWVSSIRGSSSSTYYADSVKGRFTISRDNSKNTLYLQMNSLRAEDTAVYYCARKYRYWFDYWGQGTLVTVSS VL: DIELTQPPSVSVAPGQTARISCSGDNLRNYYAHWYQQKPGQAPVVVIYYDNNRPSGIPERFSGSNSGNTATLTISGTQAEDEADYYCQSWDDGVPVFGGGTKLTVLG | IC50, FXa restoring assay: 0.33
